target: human CRTH2 receptor (Homo sapiens, UniProt Q9Y5Y4)
Construct: membranes prepared in house from the purchased cell line
Sequence (Q9Y5Y4 1-395): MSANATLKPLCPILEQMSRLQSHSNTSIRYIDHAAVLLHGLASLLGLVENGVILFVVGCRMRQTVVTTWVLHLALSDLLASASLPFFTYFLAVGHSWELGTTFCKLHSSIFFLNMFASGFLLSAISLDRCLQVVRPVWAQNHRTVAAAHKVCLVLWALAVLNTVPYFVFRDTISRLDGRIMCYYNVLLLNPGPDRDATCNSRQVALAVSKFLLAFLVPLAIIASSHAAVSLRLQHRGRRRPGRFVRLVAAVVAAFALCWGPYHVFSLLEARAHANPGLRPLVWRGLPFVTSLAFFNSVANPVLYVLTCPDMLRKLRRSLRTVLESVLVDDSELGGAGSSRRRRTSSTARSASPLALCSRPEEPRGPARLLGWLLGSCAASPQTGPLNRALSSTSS
test: Human CRTH2 receptor membrane radioligand binding assay (SPA, [3H]-PGD2)
assay.context: displacement of [3H]-PGD2 (1 nM) from CHO-K1-hCRTH2 cell membranes, 3 h room temperature
experimental.readout: log10 of Ki (log10 of the value in nM)

1. CCc1nn(Cc2ccc(S(=O)(=O)Nc3ccc(Cl)c(F)c3)cc2)c(CC)c1CC(=O)O [Example 10.5] = 1.44
2. Cc1nn(Cc2ccc(NC(=O)c3ccc(Cl)c(Cl)c3)cc2F)c(C)c1CC(=O)O [Example 7.18] = 0.38
3. CCc1nn(Cc2ccc(NC(=O)OCc3ccc4ccccc4c3)cc2)c(CC)c1CC(=O)O [Example 3.12] = -1.00
4. Cc1nn(Cc2ccc(NC(=O)CCc3ccccc3)cc2)c(C)c1CC(=O)O [Example 1.10] = 0.87
5. CC(C)(C)c1nn(Cc2ccc(C(=O)Nc3ccc(F)c(Cl)c3)cc2)c(C(C)(C)C)c1CC(=O)O [Example 9.15] = 1.51
6. Cc1nn(Cc2ccc(NC(=O)OCc3ccccc3)cc2F)c(C)c1CC(=O)O [Example 3.14] = 0.95
7. CCc1nn(Cc2ccc(NC(=O)[C@H]3CC[C@@H](C(F)(F)F)CC3)cc2)c(CC)c1CC(=O)O [Example 2.16] = 1.38
8. CCc1nn(Cc2ccc(NC(=O)c3cccc4c3CCCC4)cc2)c(CC)c1CC(=O)O [Example 2.21] = -0.30
9. COc1ccc(CCNS(=O)(=O)c2ccc(Cn3nc(C)c(CC(=O)O)c3C)cc2)cc1OC [Example 10.2] = 2.87
10. CCc1nn(Cc2ccc(C(=O)NCc3cc4ccccc4o3)cc2F)c(CC)c1CC(=O)O [Example 9.28] = 1.02
11. Cc1nn(Cc2ccc(NC(=O)c3ccc4ccccc4c3)cc2F)c(C)c1CC(=O)O [Example 7.20] = 0.34
12. Cc1nn(Cc2ccc(OCc3ccc(C(F)(F)F)cc3)cc2)c(C)c1CC(=O)O [Example 13.2] = 3.03
13. Cc1nn(Cc2ccc(NC(=O)c3ccc(C(F)(F)F)cc3)cc2F)c(C)c1CC(=O)O [Example 7.17] = 0.04
14. Cc1nn(Cc2ccc(NC(=O)c3ccc(Cl)cc3)cc2)c(C)c1CC(=O)O [Example 1.6] = 0.54
15. CCc1nn(Cc2ccc(NC(=O)c3ccc(Cl)cc3C)cc2)c(C2CC2)c1CC(=O)O [Example 2.49] = -0.22
16. Cc1nn(Cc2ccc(NS(=O)(=O)c3ccc(C(F)(F)F)cc3)cc2)c(C)c1CC(=O)O [Example 5.4] = 2.36

* * *

Recorded Ki, one value per entry.
target: human CRTH2 receptor (Homo sapiens, UniProt Q9Y5Y4)
Construct: membranes prepared in house from the purchased cell line
test: Human CRTH2 receptor membrane radioligand binding assay (SPA, [3H]-PGD2)
assay.context: displacement of [3H]-PGD2 (1 nM) from CHO-K1-hCRTH2 cell membranes, 3 h room temperature
experimental.readout: Ki (nM)

1) CCc1nn(Cc2ccc(C(=O)Nc3ccc(Br)c(F)c3)cc2)c(CC)c1CC(=O)O = 6.7
2) Cc1nn(Cc2ccc(NC(=O)C(C)C)cc2)c(C)c1CC(=O)O = 32.5
3) COc1c(CC(=O)O)c(C)nn1Cc1ccc(NC(=O)c2ccc3ccccc3c2)cc1 = 4.2
4) Cc1nn(Cc2ccc(NC(=O)c3ccc4ccccc4c3C)cc2)c(C)c1CC(=O)O = 36
5) Cc1c(CC(=O)O)cnn1Cc1ccc(NC(=O)c2ccc(Cl)c(Cl)c2)cc1 = 27.8
6) Cc1nn(Cc2ccc(COc3ccccc3)cc2)c(C)c1CC(=O)O = 742
7) CCc1c(CC(=O)O)c(C)nn1Cc1ccc(NC(=O)c2ccc(C(F)(F)F)cc2)cc1 = 0.5
8) CCc1c(CC(=O)O)c(C2CC2)nn1Cc1ccc(NC(=O)c2ccc(Cl)cc2C)cc1 = 0.6
9) Cc1nn(Cc2ccc(NC(=O)OCc3ccc4ccccc4c3)cc2)c(C)c1CC(=O)O = 0.6
10) Cc1ccc(NC(=O)c2ccc(Cn3nc(C)c(CC(=O)O)c3C)cc2)cc1Cl = 7.5
11) Cc1nn(Cc2ccc(NC(=O)c3cc4ccccc4cc3Cl)cc2)c(C)c1CC(=O)O = 5.7
12) Cc1nn(Cc2ccc(NC(=O)/C=C/c3ccccc3)cc2Cl)c(C)c1CC(=O)O = 0.9
13) CCc1nn(Cc2ccc(NC(=O)c3ccc(C)cc3)cc2)c(CC)c1CC(=O)O = 1.3
14) CCc1nn(Cc2ccc(NC(=O)C3CCCCC3)cc2)c(CC)c1CC(=O)O = 2.8
15) Cc1cc(Cn2nc(C)c(CC(=O)O)c2C)ccc1NC(=O)c1ccccc1 = 407
16) CCc1nn(Cc2ccc(NC(=O)c3ccc(Cl)c(Cl)c3)cc2)c(CC)c1CC(=O)O = 0.25
17) O=C(O)Cc1c(-c2ccccc2)nn(Cc2ccc(NC(=O)c3ccc4ccccc4c3)cc2)c1-c1ccccc1 = 10.2

* * *

Entries and their Ki
target: human CRTH2 receptor (Homo sapiens)
Construct: membranes prepared in house from the purchased cell line
test: Human CRTH2 receptor membrane radioligand binding assay (SPA, [3H]-PGD2)
assay.context: displacement of [3H]-PGD2 (1 nM) from CHO-K1-hCRTH2 cell membranes, 3 h room temperature
experimental.readout: Ki (nM)

1. Cc1nn(Cc2ccc(CSc3ccc(Cl)c(Cl)c3)cc2)c(C)c1CC(=O)O = 875
2. Cc1nn(Cc2ccc(NC(=O)OCc3ccccc3Cl)cc2)c(C)c1CC(=O)O = 16.8
3. Cc1cc(Cl)ccc1COc1ccc(Cn2nc(C)c(CC(=O)O)c2C)cc1 = 619
4. Cc1nn(Cc2ccc(NC(=O)/C=C/c3ccc(Cl)cc3)cc2)c(C)c1CC(=O)O = 1.1
5. Cc1nn(Cc2ccc(C[S+]([O-])c3ccc(C(F)(F)F)cc3)cc2)c(C)c1CC(=O)O (centres unmarked) = 324
6. Cc1nn(Cc2ccc(NC(=O)c3ccc(Br)cc3Cl)cc2)c(C)c1CC(=O)O = 9.3
7. Cc1nn(Cc2ccc(NC(=O)c3ccc4ccccc4c3Br)cc2)c(C)c1CC(=O)O = 14.6
8. Cc1nn(Cc2ccc(C(=O)Nc3ccc(Cl)c(F)c3)cc2)c(C)c1CC(=O)O = 24.5
9. CCc1nn(Cc2ccc(C(=O)NC3CCC4CCCCC4C3)cc2)c(CC)c1CC(=O)O (centres unmarked) = 32.1
10. CCCc1c(C)cccc1C(=O)Nc1ccc(Cn2nc(CC)c(CC(=O)O)c2CC)cc1 = 4.3
11. Cc1cc(Cl)ccc1C(=O)Nc1ccc(Cn2nc(C)c(CC(=O)O)c2C)c(F)c1 = 5.8
12. CCc1nn(Cc2ccc([S+]([O-])Cc3ccccc3)cc2)c(CC)c1CC(=O)O (centres unmarked) = 48.8
13. Cc1cc2ccccc2cc1C(=O)Nc1ccc(Cn2nc(C)c(CC(=O)O)c2C)cc1 = 3.1
14. Cc1nn(Cc2ccc(NS(=O)(=O)c3ccc(Cl)c(Cl)c3)cc2)c(C)c1CC(=O)O = 30.6
15. Cc1nn(Cc2ccc(C(=O)Nc3ccc(Cl)c(C(F)(F)F)c3)cc2)c(C)c1CC(=O)O = 3
16. CCc1nn(Cc2ccc(NC(=O)c3ccc(C(F)(F)F)cc3)cc2)c(C2CC2)c1CC(=O)O = 0.1
17. Cc1nn(Cc2ccc(C(=O)Cc3ccccc3)cc2)c(C)c1CC(=O)O = 552

* * *

target: human CRTH2 receptor (Homo sapiens)
Construct: membranes prepared in house from the purchased cell line
test: Human CRTH2 receptor membrane radioligand binding assay (SPA, [3H]-PGD2)
assay.context: displacement of [3H]-PGD2 (1 nM) from CHO-K1-hCRTH2 cell membranes, 3 h room temperature
pKi: −log10 of the molar value.
Mark 0.0 for pKi values under 8, and 1.0 for everything at or above.

1) Cc1cc(C(F)(F)F)ccc1C(=O)Nc1ccc(Cn2nc(C)c(CC(=O)O)c2C)c(Cl)c1 = 1.0
2) CCc1nn(Cc2ccc(OCc3ccc(OC(F)(F)F)c(Cl)c3)cc2)c(CC)c1CC(=O)O = 0.0
3) Cc1nn(Cc2ccc(NC(=O)c3ccc4ccccc4c3)cc2)c(C)c1CC(=O)O = 1.0
4) CCc1nn(Cc2ccc(NC(=O)C3CCCC3)cc2)c(CC)c1CC(=O)O = 1.0
5) CCc1nn(Cc2ccc(S(=O)(=O)Nc3ccc(Cl)c(Cl)c3)cc2)c(CC)c1CC(=O)O = 0.0
6) Cc1nn(Cc2ccc(C(=O)Nc3ccc(F)c(Cl)c3)cc2)c(C)c1CC(=O)O = 0.0
7) Cc1nn(Cc2ccc(NC(=O)c3ccc(Cl)c(Cl)c3)cc2)c(-c2ccccc2)c1CC(=O)O = 1.0

FYI, the data here is from patent US20140148484A1.
